Data origin, for the record: patent US20240109918A1

SYSTEM_UNDER_TEST: KRASwt (Homo sapiens)
ASSAY_PROCEDURE: Bio-Biochem-PPI-HTRF Ras-SOS1 interaction assay (KRAS wt)
TEST_SETTINGS: 5 nM
Description: The assay buffer can contain −5 mM HEPES pH 7.4, ˜150 mM NaCl, ˜ 1 mM DTT, 0.05% BSA and 0.0025% (v/v) Igepal. […] A suitable amount of the protein construct will depend on the range of activity or range of IC50 values being detected or under investigation. […] Upon incubation for about 10 minutes or longer, the fluorescence is measured with a M1000Pro plate reader (Tecan) using HTRF detection (excitation 337 nm, emission 1:620 nm, emission 2: 665 nm). […]
pIC50: −log10 of the molar value.
The reader will find reported pIC50 values listed item by item below.

Below are worked cases with known answers.
N#Cc1c(N)sc2c(F)ccc(-c3c(Cl)cc4c(N5CCCCC6(CN(C(=O)C7CC8CCC7O8)C6)C5)nc(OC[C@@]56CCCN5C[C@H](F)C6)nc4c3F)c12 (stereo partly drawn) : > 5.30
CC(C)[C@H](N)C(=O)N1CC2(CCCCN(c3nc(OC[C@@]45CCCN4C[C@H](F)C5)nc4c(F)c(-c5ccc(F)c6sc(N)c(C#N)c56)c(Cl)cc34)C2)C1 : > 5.30

Turning now to a further record.
Data point: Cn1nccc1C(=O)N1CC2(CCCCN(c3nc(OC[C@@]45CCCN4C[C@H](F)C5)nc4c(F)c(-c5ccc(F)c6sc(N)c(C#N)c56)c(Cl)cc34)C2)C1 ; pIC50 = > 5.30

====

SYSTEM_UNDER_TEST: KRASwt (Homo sapiens)
ASSAY_PROCEDURE: Bio-Biochem-PPI-HTRF Ras-SOS1 interaction assay (KRAS wt)
TEST_SETTINGS: 5 nM
pIC50: −log10 of the molar value.
MEASURED_QUANTITY: pIC50

Please review the entries below; each comes with its answer.
N#Cc1c(N)sc2c(F)ccc(-c3c(Cl)cc4c(N5CCCCC6(CN(C(=O)C7CC7(F)Cl)C6)C5)nc(OC[C@@]56CCCN5C[C@H](F)C6)nc4c3F)c12 (some centres unmarked) : > 5.30
C#Cc1c(F)ccc2cc(O)cc(-c3ccc4c(N5CCOC6(CNC6)C5)nc(OC[C@@]56CCCN5C[C@H](F)C6)nc4c3F)c12 : > 5.30
N#Cc1c(N)sc2c(F)ccc(-c3c(Cl)cc4c(N5CCCCC6(CN(C(=O)C(F)Cl)C6)C5)nc(OC[C@@]56CCCN5C[C@H](F)C6)nc4c3F)c12 (some centres unmarked) : > 5.30
N#Cc1c(N)sc2c(F)ccc(-c3c(Cl)cc4c(N5CCCCC6(CN(C(=O)c7ccnn7CC(F)F)C6)C5)nc(OC[C@@]56CCCN5C[C@H](F)C6)nc4c3F)c12 : > 5.30

Turning now to a further record.
Measured pIC50, N#Cc1c(N)sc2c(F)ccc(-c3c(Cl)cc4c(N5CCCCC6(CN(C(=O)CN7CCOCC7)C6)C5)nc(OC[C@@]56CCCN5C[C@H](F)C6)nc4c3F)c12 : > 5.30

====

SYSTEM_UNDER_TEST: KRASwt (Homo sapiens, UniProt P01116)
Sequence (P01116 1-188 isoform P01116-2): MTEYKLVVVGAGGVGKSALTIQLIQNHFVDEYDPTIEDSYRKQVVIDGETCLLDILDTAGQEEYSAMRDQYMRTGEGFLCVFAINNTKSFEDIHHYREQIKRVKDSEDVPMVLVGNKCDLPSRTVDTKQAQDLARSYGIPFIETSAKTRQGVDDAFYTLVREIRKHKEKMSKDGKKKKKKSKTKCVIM
ASSAY_PROCEDURE: Bio-Biochem-PPI-HTRF Ras-SOS1 interaction assay (KRAS wt)
TEST_SETTINGS: 5 nM
IC50 overview

Guide cases for IC50, answers given:
N#Cc1c(N)sc2c(F)ccc(-c3c(Cl)cc4c(N5CCN(CC6CC6)C6(CN(C(=O)C(F)F)C6)C5)nc(OC[C@@]56CCCN5C[C@H](F)C6)nc4c3F)c12 [compound 346] : < 5 µM
N#Cc1c(N)sc2c(F)ccc(-c3c(Cl)cc4c(N5CCCCC6(CN(C(=O)[C@@H]7CCOC7)C6)C5)nc(OC[C@@]56CCCN5C[C@H](F)C6)nc4c3F)c12 [compound 230] : < 5 µM

Now look at this one.
Reported IC50 (KRASwt (Homo sapiens, UniProt P01116)) for entry C#Cc1c(F)ccc2cc(O)cc(-c3ncc4c(N5CCCCC6(CN(C(=O)[C@@H]7CC7(F)F)C6)C5)nc(OC[C@@]56CCCN5C[C@H](F)C6)nc4c3F)c12 [compound 334] is < 5 µM

====

SYSTEM_UNDER_TEST: KRASwt (Homo sapiens, UniProt P01116)
ASSAY_PROCEDURE: Bio-Biochem-PPI-HTRF Ras-SOS1 interaction assay (KRAS wt)
TEST_SETTINGS: 5 nM
MEASURED_QUANTITY: IC50

Use the examples below as a reference point.
N#Cc1c(N)sc2c(F)ccc(-c3c(Cl)cc4c(N5CCCCC6(CN(C(=O)C7(O)COC7)C6)C5)nc(OC[C@@]56CCCN5C[C@H](F)C6)nc4c3F)c12 [compound 327] : < 5 µM
N#Cc1c(N)sc2c(F)ccc(-c3c(Cl)cc4c(N5CCCCC6(CN(C(=O)C7CC8(C7)CC8(F)F)C6)C5)nc(OC[C@@]56CCCN5C[C@H](F)C6)nc4c3F)c12 (stereo partly shown) [compound 309] : < 5 µM
N#Cc1c(N)sc2c(F)ccc(-c3c(Cl)cc4c(N5CCCCC6(CN(C(=O)CC7CCC7)C6)C5)nc(OC[C@@]56CCCN5C[C@H](F)C6)nc4c3F)c12 [compound 320] : < 5 µM

The measured IC50 associated with N#Cc1c(N)sc2c(F)ccc(-c3c(Cl)cc4c(N5CCCCC6(CN(C(=O)CC7CC(F)(F)C7)C6)C5)nc(OC[C@@]56CCCN5C[C@H](F)C6)nc4c3F)c12 [compound 347] reads < 5 µM

====

# IC50 per record follows
SYSTEM_UNDER_TEST: KRASG12D (Homo sapiens, UniProt P01116, G12D)
Sequence (P01116 1-188 isoform P01116-2 G12D): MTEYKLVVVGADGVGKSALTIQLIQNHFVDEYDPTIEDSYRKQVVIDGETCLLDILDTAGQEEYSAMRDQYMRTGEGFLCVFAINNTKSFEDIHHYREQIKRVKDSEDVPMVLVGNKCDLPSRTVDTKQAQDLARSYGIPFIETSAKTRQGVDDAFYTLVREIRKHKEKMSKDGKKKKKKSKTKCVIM
ASSAY_PROCEDURE: Bio-Biochem-PPI-HTRF Ras-SOS1 interaction assay (KRAS G12D)
TEST_SETTINGS: 5 nM

Item: N#Cc1c(N)sc2c(F)ccc(-c3c(Cl)cc4c(N5CCCCC6(CN(C(=O)C7CCC7F)C6)C5)nc(OC[C@@]56CCCN5C[C@H](F)C6)nc4c3F)c12 (some centres unmarked) [compound 160] | IC50: < 5 µM

Data point: CC1CCCC2(CN(C(=O)C3CC3(F)F)C2)CN1c1nc(OC[C@@]23CCCN2C[C@H](F)C3)nc2c(F)c(-c3ccc(F)c4sc(N)c(C#N)c34)c(Cl)cc12 (some centres unmarked) [compound 288] ; IC50 = < 5 µM

response.value for N#Cc1c(N)sc2c(F)ccc(-c3c(Cl)cc4c(N5CCCC6(CNC6)C5)nc(OC[C@@]56CCCN5C[C@H](F)C6)nc4c3F)c12 [compound 147] (field: IC50) = < 5 µM

====

SYSTEM_UNDER_TEST: KRASG12D (Homo sapiens, UniProt P01116, G12D)
ASSAY_PROCEDURE: Bio-Biochem-PPI-HTRF Ras-SOS1 interaction assay (KRAS G12D)
TEST_SETTINGS: 5 nM
MEASURED_QUANTITY: IC50

Solved cases (5 shown):
N#Cc1c(N)sc2c(F)ccc(-c3c(Cl)cc4c(N5CCCCC6(C5)CN(S(=O)(=O)C5CC5)C6)nc(OC[C@@]56CCCN5C[C@H](F)C6)nc4c3F)c12 [compound 195] : < 5 µM
N#CN1CC2(C1)CN(c1nc(OC[C@@]34CCCN3C[C@H](F)C4)nc3c(F)c(-c4ccc(F)c5sc(N)nc45)c(Cl)cc13)CCO2 [compound 187] : < 5 µM
N#Cc1c(N)sc2c(F)ccc(-c3c(Cl)cc4c(N5CCC(O)CC6(CN(C(=O)C(F)F)C6)C5)nc(OC[C@@]56CCCN5C[C@H](F)C6)nc4c3F)c12 (some centres unmarked) [compound 241] : < 5 µM
NC(=O)N1CC2(CCN(c3nc(OC[C@@]45CCCN4C[C@H](F)C5)nc4c(F)c(-c5ccc(F)c6sc(N)nc56)c(Cl)cc34)CC2)C1 [compound 157] : < 5 µM
Cn1nccc1C(=O)N1CC2(CCCCN(c3nc(OC[C@@]45CCCN4C[C@H](F)C5)nc4c(F)c(-c5ccc(F)c6sc(N)c(C#N)c56)c(Cl)cc34)C2)C1 [compound 134] : < 5 µM

Form field IC50, entry C[C@H](Oc1nc(N2CCCC3(CNC3)C2)c2cc(Cl)c(-c3ccc(F)c4sc(N)c(C#N)c34)c(F)c2n1)[C@@H]1CCCN1C [compound 122] : < 5 µM

Lookup result for C#Cc1c(F)ccc2cc(O)cc(-c3ncc4c(N5CCCC6(CNC6)C5)nc(O[C@@H](C)[C@@H]5CCCN5C)nc4c3F)c12 [compound 152] ; measured IC50: ≥ 5 µM

// sample N#Cc1c(N)sc2c(F)ccc(-c3c(Cl)cc4c(N5CCCCC6(CN(C(=O)C7CC8(C7)CC8(F)F)C6)C5)nc(OC[C@@]56CCCN5C[C@H](F)C6)nc4c3F)c12 (some centres unmarked) [compound 309] , its IC50 was < 5 µM

For this compound ( N#Cc1c(N)sc2c(F)ccc(-c3c(Cl)cc4c(N5CCCCC6(CN(C(=O)C7CC7C7CC7)C6)C5)nc(OC[C@@]56CCCN5C[C@H](F)C6)nc4c3F)c12 (some centres unmarked) [compound 261] ), measured IC50 is < 5 µM

Looking up CN(C)C/C=C/C(=O)N1CC2(CCCCN(c3nc(OC[C@@]45CCCN4C[C@H](F)C5)nc4c(F)c(-c5ccc(F)c6sc(N)c(C#N)c56)c(Cl)cc34)C2)C1 [compound 188] , I see its IC50 listed as < 5 µM

IC50 reported for this compound CC(F)(F)C(=O)N1CC2(CCCCN(c3nc(OC[C@@]45CCCN4C[C@H](F)C5)nc4c(F)c(-c5ccc(F)c6sc(N)c(C#N)c56)c(Cl)cc34)C2)C1 [compound 213] : < 5 µM
